B1: VH:VL chains; a variant is named by its letters at X, in order (parent)
chain 1: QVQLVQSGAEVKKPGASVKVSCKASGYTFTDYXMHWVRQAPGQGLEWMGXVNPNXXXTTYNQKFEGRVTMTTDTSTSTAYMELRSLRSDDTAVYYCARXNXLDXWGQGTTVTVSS
chain 2: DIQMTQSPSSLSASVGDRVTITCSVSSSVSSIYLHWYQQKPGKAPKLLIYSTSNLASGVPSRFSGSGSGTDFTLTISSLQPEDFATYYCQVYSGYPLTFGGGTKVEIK

Variants of: B1
Experimental Protocol: yeast display scFab, FACS + sequencing
Endpoint Label: non-specific binding call

VAGGDDWV = no binding
FKKGDAVS = binds
YKGRGVGV = binds
ARAAGDVF = no binding

Reference source: the emibetuzumab library of Makowski et al. (2022)
